system: Enterococcus faecium ATCC 700221 (VRE); assay: Broth microdilution MIC, E. faecium ATCC 700221 (VRE); assay type: cell-based; conditions: Enterococcus faecium; broth microdilution, 37° C., 20 hours; read-out: MIC E. faecium ATCC 700221 (VRE)
Test Readout: MIC (µg/mL)
Unit µg/mL implied. Number only.

The following compounds have reported results that may help.
Q) Identify measured MIC corresponding to O=c1[nH]c(NCc2ccc(Cl)c(Cl)c2)nc2c(F)nn(Cc3cocn3)c12
A) 1

Q) Identify MIC associated with the compound O=c1[nH]c(NCc2ccc(Cl)c(Cl)c2)nc2cn(CC3CCC3)nc12
A) 8

Q) Return MIC for the following compound: O=c1[nH]c(NCc2ccc(Cl)c(Cl)c2)nc2cnn(CCNCCn3ncc4nc(NCc5ccc(Cl)c(Cl)c5)[nH]c(=O)c43)c12
A) 2

Further cases:
Q) Given the compound CN1CCC(O)(Cn2ncc3nc(NCc4ccc(Cl)c(Cl)c4)[nH]c(=O)c32)CC1.Cl , write its reported MIC.
A) 64

Q) Read the entry O=c1[nH]c(NCc2ccc(Cl)c(Cl)c2)nc2cnn(CCO)c12 and write its reported MIC.
A) 2

Q) // fetch MIC given entry CC(C)n1cc2nc(NCc3ccc(Cl)c(Cl)c3)[nH]c(=O)c2n1
A) 16

Q) Using the record for Cn1nc(C2C=CCO2)c2nc(NCc3ccc(Cl)c(Cl)c3)[nH]c(=O)c21 (stereo not shown) , state its measured MIC.
A) 8

Q) For the compound O=c1[nH]c(NCc2ccc(Cl)c(Cl)c2)nc2cnn(CC(CO)N3CCOCC3)c12 (stereo not shown) , give its reported MIC.
A) 16

Q) Quick one: give measured MIC for N.N.O=c1[nH]c(NCc2ccc(Cl)c(Cl)c2)nc2cnn(CCOCCOCOP(=O)(O)O)c12
A) 16

Q) Give a short answer stating reported MIC for Cl.Cl.O=c1[nH]c(NCc2ccc(Cl)c(Cl)c2)nc2cnn(C3CCN(c4ccccn4)CC3)c12 .
A) 2

* * *

test system: Enterococcus faecalis ATCC 29212; assay: Broth microdilution MIC, E. faecalis ATCC 29212; assay type: cell-based; conditions: ATCC29212, broth microdilution, 37° C., 20 hours, read-out: MIC E. faecalis ATCC 29212
Below, each of the compounds is paired with its reported MIC value.
Give just the number in µg/mL; leave the unit off.

Q) Kindly indicate its recorded MIC. Item: O=c1[nH]c(NCc2ccc(F)c(F)c2)nc2c(F)nn(CC3CCO3)c12 (stereo not shown)
A) 8

Further cases:
Q) Kindly indicate its recorded MIC. Item: O=c1[nH]c(NCc2ccc(Cl)c(Cl)c2)nc2cnn(CCOC3COC3)c12
A) 8

Q) Identify measured MIC associated with Cn1ncc2nc(NCc3ccc(Cl)c(Cl)c3)[nH]c(=O)c21
A) 2

Q) Answer with the recorded MIC for the compound listed here: CC(CO)n1cc2nc(NCc3ccc(Cl)c(Cl)c3)[nH]c(=O)c2n1 (stereo not shown)
A) 64

Q) Indicate the recorded MIC value for this compound: O=c1[nH]c(NCc2ccc(Cl)c(Cl)c2)nc2cnn(CC3COC3)c12
A) 2

Q) Give reported MIC value for COCCOCn1ncc2nc(NCc3ccc(Cl)c(Cl)c3)[nH]c(=O)c21
A) 4

Q) Fill in MIC for record O=c1[nH]c(NCc2ccc(F)c(F)c2)nc2c(F)nn(CCOCCO)c12
A) 8

Q) Return the recorded MIC value; entry: Cl.O=c1[nH]c(NCc2ccc(Cl)c(Cl)c2)nc2cnn(CCc3cnccn3)c12
A) 4

Q) Given COCCn1ncc2nc(NCc3ccc(Cl)c(Cl)c3)[nH]c(=O)c21 , respond with its MIC.
A) 4

Q) Identify the reported MIC for the following entry. O=c1[nH]c(NCc2ccc(Cl)c(Cl)c2)nc2cn(C3COC3)nc12
A) 32

Q) Consider the compound Cn1ncc2nc(NCc3ccccc3)[nH]c(=O)c21 and give its recorded MIC.
A) 64

Q) Find the measured MIC of Cl.Cl.O=c1[nH]c(NCc2ccc(Cl)c(Cl)c2)nc2cnn(C3CCN(CC4CCCCN4)CC3)c12 (stereo not shown) and report it.
A) 16
